Target: CYP2B6 (Homo sapiens)
Sequence (P20813 whole entry): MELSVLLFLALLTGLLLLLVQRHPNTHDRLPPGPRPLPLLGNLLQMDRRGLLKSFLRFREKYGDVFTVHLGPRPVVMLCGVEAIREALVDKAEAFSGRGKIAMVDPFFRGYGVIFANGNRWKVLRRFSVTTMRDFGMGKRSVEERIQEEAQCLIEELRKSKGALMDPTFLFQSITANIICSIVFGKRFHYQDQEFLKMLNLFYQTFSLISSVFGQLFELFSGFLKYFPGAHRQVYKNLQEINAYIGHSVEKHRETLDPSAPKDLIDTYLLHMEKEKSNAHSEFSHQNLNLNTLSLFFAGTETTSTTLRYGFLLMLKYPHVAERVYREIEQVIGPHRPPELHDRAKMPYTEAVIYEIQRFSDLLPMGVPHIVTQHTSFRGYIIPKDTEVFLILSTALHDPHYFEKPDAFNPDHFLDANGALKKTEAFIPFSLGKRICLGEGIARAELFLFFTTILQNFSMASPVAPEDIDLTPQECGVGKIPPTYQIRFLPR
Assay: Time dependent inhibition of CYP2B6 (unknown origin) at 10 uM by LC/MS system
Type: ADME
What inhibition at 10 µM was measured for each of the following?

Give measured inhibition at 10 µM for every item shown.
1. COc1cc(C(=O)NS(=O)(=O)c2ccccc2C)ccc1Cc1cn(C)c2ccc(NC(=O)OC3CCCC3)cc12 [ZAFIRLUKAST]
2. CCc1oc2ccccc2c1C(=O)c1cc(Br)c(O)c(Br)c1 [BENZBROMARONE]

< 10%
< 10%

====

Target: CYP2C19 (Homo sapiens, UniProt P33261)
Sequence (P33261 whole entry): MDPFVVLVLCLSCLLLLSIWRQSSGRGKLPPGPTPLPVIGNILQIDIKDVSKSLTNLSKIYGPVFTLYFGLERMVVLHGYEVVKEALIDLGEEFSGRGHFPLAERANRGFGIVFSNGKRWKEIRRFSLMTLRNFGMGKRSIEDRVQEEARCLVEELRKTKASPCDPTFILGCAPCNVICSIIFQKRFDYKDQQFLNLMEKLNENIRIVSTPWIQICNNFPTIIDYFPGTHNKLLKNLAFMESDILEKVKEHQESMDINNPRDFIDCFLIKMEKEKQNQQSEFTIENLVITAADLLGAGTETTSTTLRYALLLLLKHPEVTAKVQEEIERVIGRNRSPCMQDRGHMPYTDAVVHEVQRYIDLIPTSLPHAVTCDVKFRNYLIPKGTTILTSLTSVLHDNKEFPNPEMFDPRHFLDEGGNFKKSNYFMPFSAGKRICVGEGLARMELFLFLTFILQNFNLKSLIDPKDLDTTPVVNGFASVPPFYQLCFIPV
Experiment: in vitro
Settings: human liver microsomes
What inhibition at 100 µM was measured for each of the following?

See these solved cases before continuing.
- COMPOUND: "CC(C)C(=O)Nc1ccc([N+](=O)[O-])c(C(F)(F)F)c1 [FLUTAMIDE]"
  SYSTEM_UNDER_TEST: "CYP2C19 (Homo sapiens, UniProt P33261)"
  inhibition at 100 µM: "< 10%"
- COMPOUND: "CC(=O)CC(c1ccccc1)c1c(O)c2ccccc2oc1=O (stereo not given)"
  SYSTEM_UNDER_TEST: "CYP2C19 (Homo sapiens, UniProt P33261)"
  inhibition at 100 µM: "< 10%"
- COMPOUND: "COc1cc(C(=O)NS(=O)(=O)c2ccccc2C)ccc1Cc1cn(C)c2ccc(NC(=O)OC3CCCC3)cc12"
  SYSTEM_UNDER_TEST: "CYP2C19 (Homo sapiens, UniProt P33261)"
  inhibition at 100 µM: "< 10%"
- COMPOUND: "Cc1ccnc2c1NC(=O)c1cccnc1N2C1CC1"
  SYSTEM_UNDER_TEST: "CYP2C19 (Homo sapiens, UniProt P33261)"
  inhibition at 100 µM: "12%"
- COMPOUND: "Cn1c(=O)c2c(ncn2C)n(C)c1=O"
  SYSTEM_UNDER_TEST: "CYP2C19 (Homo sapiens, UniProt P33261)"
  inhibition at 100 µM: "< 10%"
- COMPOUND: "Cc1cc2c(s1)Nc1ccccc1N=C2N1CCN(C)CC1"
  SYSTEM_UNDER_TEST: "CYP2C19 (Homo sapiens, UniProt P33261)"
  inhibition at 100 µM: "< 10%"
- COMPOUND: "COc1ccc2c(c1)c(CC(=O)O)c(C)n2C(=O)c1ccc(Cl)cc1"
  SYSTEM_UNDER_TEST: "CYP2C19 (Homo sapiens, UniProt P33261)"
  inhibition at 100 µM: "< 10%"
- COMPOUND: "CCCc1nc(C(C)(C)O)c(C(=O)O)n1Cc1ccc(-c2ccccc2-c2nnn[nH]2)cc1"
  SYSTEM_UNDER_TEST: "CYP2C19 (Homo sapiens, UniProt P33261)"
  inhibition at 100 µM: "< 10%"
- COMPOUND: "CCc1ccc(CCOc2ccc(CC3SC(=O)NC3=O)cc2)nc1 (stereo not given)"
  SYSTEM_UNDER_TEST: "CYP2C19 (Homo sapiens, UniProt P33261)"
  inhibition at 100 µM: "< 10%"
- COMPOUND: "C[C@H]1COc2c(N3CCN(C)CC3)c(F)cc3c(=O)c(C(=O)O)cn1c23.C[C@H]1COc2c(N3CCN(C)CC3)c(F)cc3c(=O)c(C(=O)O)cn1c23.O"
  SYSTEM_UNDER_TEST: "CYP2C19 (Homo sapiens, UniProt P33261)"
  inhibition at 100 µM: "< 10%"

Give measured inhibition at 100 µM for every item shown.
1. CCc1oc2ccccc2c1C(=O)c1cc(Br)c(O)c(Br)c1
2. CN(CCOc1ccc(CC2SC(=O)NC2=O)cc1)c1ccccn1 (stereo not given)
3. CCOC(=O)C1=C(COCCN)NC(C)=C(C(=O)OC)C1c1ccccc1Cl (stereo not given)

1. < 10%
2. < 10%
3. < 10%

Give measured inhibition at 100 µM for every item shown.
1. CC[C@H]1OC(=O)[C@H](C)[C@@H](O[C@H]2C[C@@](C)(OC)[C@@H](O)[C@H](C)O2)[C@H](C)[C@@H](O[C@@H]2O[C@H](C)C[C@H](N(C)C)[C@H]2O)[C@](C)(O)C[C@@H](C)C(=O)[C@H](C)[C@@H](O)[C@]1(C)O
2. CCCCC(=O)N(Cc1ccc(-c2ccccc2-c2nnn[nH]2)cc1)[C@H](C(=O)O)C(C)C

1. < 10%
2. < 10%

Data provenance is ChEMBL document CHEMBL3526118.
